Each recorded value in this set is attributed to the supplement of paper PMC8728848.

Reported glycan array binding signal (z-score) values are given for each entry in this list.
Target: Gal(a1-3)Gal(b1-4)GlcNAc(b1-2)Man
Assay: glycan array binding signal (z-score within array); higher = stronger binding
Conditions: glycan notation: IUPAC condensed, linker removed
The full list was thinned out, with the strongest signals kept by preference.
Observed Property: glycan array binding signal (z-score)

>>> observed_result("Epa3to2 (Candida glabrata) (protein) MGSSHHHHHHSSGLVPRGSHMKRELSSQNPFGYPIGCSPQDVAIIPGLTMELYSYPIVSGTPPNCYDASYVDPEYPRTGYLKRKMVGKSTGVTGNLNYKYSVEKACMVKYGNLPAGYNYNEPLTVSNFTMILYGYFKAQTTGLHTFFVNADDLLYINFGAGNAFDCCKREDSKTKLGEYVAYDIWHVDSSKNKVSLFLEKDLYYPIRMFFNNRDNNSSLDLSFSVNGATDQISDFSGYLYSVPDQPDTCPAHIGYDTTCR")
-0.911
>>> observed_result("SJCP3842 (Schistosoma japonicum) (protein) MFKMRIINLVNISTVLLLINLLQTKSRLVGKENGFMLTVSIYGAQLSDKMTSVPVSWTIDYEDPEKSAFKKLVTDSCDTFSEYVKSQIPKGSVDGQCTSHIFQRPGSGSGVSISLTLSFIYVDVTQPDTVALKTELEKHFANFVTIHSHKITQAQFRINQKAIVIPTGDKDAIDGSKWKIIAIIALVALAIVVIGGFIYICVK")
-1.09
>>> observed_result("Epa1to9 (Candida glabrata) (protein) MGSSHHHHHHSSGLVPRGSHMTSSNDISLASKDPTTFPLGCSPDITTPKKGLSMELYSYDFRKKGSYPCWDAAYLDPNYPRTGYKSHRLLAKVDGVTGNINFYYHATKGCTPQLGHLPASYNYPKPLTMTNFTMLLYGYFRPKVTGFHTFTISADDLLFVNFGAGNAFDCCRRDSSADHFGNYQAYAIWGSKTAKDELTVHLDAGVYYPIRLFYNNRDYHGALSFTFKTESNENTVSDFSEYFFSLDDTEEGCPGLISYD")
0.008
>>> observed_result("Epa22 (Candida glabrata) (protein) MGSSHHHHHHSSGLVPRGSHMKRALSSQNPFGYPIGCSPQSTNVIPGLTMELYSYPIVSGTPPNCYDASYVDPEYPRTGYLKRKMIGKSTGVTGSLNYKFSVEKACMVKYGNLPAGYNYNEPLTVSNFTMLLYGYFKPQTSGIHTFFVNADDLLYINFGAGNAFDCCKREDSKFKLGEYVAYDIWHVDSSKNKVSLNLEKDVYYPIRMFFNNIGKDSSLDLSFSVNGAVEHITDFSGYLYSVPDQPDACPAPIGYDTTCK")
4.75
>>> observed_result("SAOUHSC 02783 (Staphylococcus aureus), Q5HD69 (protein) MIHSKKLTLGICLVLLIILIVGYVIMTKTNGRNAQIKDTFNQTLKLYPTKNLDDFYDKEGFRDQEFKKGDKGTWIVNSEMVIEPKGKDMETRGMVLYINRNTRTTKGYYFISEMTDDSNGRPKDDEKRYPVKMEHNKIIPTKPLPNDKLKKEIENFKFFVQYGNFKDINDYKDGDISYNPNVPSYSAKYQLNNDDYNVQQLRKRYDIPTKQAPKLLLKGDGDLKGSSVGSRSLEFTFVENKEENIYFTDSVQYTPSEDTRYESN")
-0.596
